Each entry below carries its reported Papp.
- Assay explanation: Membrane permeability test of cyclic peptides (Caco-2, modified/improved method of WO 2018/124162)
- Cond: human, Caco-2, Caco-2 (membrane permeability), Table 10, cyclic peptides containing Ser(S-4-F2-Pyrro-Me) (G) or Nva(2-R-4-F2-Pyrro) (H)
*1 amine or outer side, *2 acyl side, *3 side chain or, on linkers, in order; H or OH if unused. Where a SMILES comes first, the peptide text is derived from it. Bridges are numbered along the chain shown (N, C = ends). [ ]: non-standard residue; d: D form. The star is where a group is joined. X5 = O=C([C@H](CCC[C@@H]1CC(F)(F)CN1)N[*:1])[*:2]; Pro(4,4-F2)ψ(CH2) = FC1(F)CN[C@H](C*)C1; NMeF = CN[C@@H](Cc1ccccc1)C(=O)O; NMeL = CN[C@@H](CC(C)C)C(=O)O; NMeAbu = CC[C@H](NC)C(=O)O; NMeA = CN[C@@H](C)C(=O)O; Piperidide = C1CCN(*)CC1; NBuGly = CCCCNCC(=O)O; Sar = CNCC(=O)O; tBu = CC(C)(C)*
Only the number, expressed in ×10⁻⁶ cm/s, is required.

Field: example entries. Status: answers known.
CCCCN1CC(=O)N(C)[C@@H](Cc2ccccc2)C(=O)N(C)[C@@H](CC(C)C)C(=O)N[C@@H](CCC[C@@H]2CC(F)(F)CN2)C(=O)N(C)[C@@H](CC(C)C)C(=O)N[C@H](C(=O)N2CCCCC2)CC(=O)N(C)CC(=O)N(C)[C@@H](CC(C)C)C(=O)N[C@@H](C(C)C)C(=O)N(C)[C@@H](CC(C)C)C(=O)N[C@@H]([C@@H](C)O)C1=O [Compound H07] ([Sar][NMeL]V[NMeL]T[NBuGly][NMeF][NMeL][X5][NMeL]D-Piperidide; lactam N-11)
0.16
CCCCN1CC(=O)N(C)[C@@H](CC(C)C)C(=O)N[C@@H](COC(C)(C)C)C(=O)N(C)[C@@H](Cc2ccccc2)C(=O)N(C)[C@@H](C)C(=O)N[C@H](C(=O)N2CCCCC2)CC(=O)N[C@H](C)C(=O)N(C)[C@@H](CC)C(=O)N[C@@H](C(C)C)C(=O)N(C)[C@@H](CC(C)C)C(=O)N[C@@H](CCC[C@@H]2CC(F)(F)CN2)C1=O [Compound H08] ([dA][NMeAbu]V[NMeL][X5][NBuGly][NMeL]S(tBu)[NMeF][NMeA]D-Piperidide; lactam N-11)
0.92
CCCCN1CC(=O)N(C)[C@@H](Cc2ccccc2)C(=O)N(C)[C@@H](CC(C)C)C(=O)N[C@@H](CC(C)C)C(=O)N(C)[C@@H](CC(C)C)C(=O)N[C@H](C(=O)N2CCCCC2)CC(=O)N(C)CC(=O)N(C)[C@@H](C)C(=O)N[C@@H](C(C)C)C(=O)N(C)[C@@H](CC)C(=O)N[C@@H](CCC[C@@H]2CC(F)(F)CN2)C1=O [Compound H11] ([Sar][NMeA]V[NMeAbu][X5][NBuGly][NMeF][NMeL]L[NMeL]D-Piperidide; lactam N-11)
2
CCCCN1CC(=O)N(C)[C@@H](CC(C)C)C(=O)N[C@H](C(=O)N2CCCCC2)CC(=O)N(C)[C@@H](CC)C(=O)N[C@@H](CC(C)C)C(=O)N(C)[C@@H](CC(C)C)C(=O)N(C)[C@@H](Cc2ccccc2)C(=O)N[C@@H](COC[C@@H]2CC(F)(F)CN2)C(=O)N(C)[C@@H](CC)C(=O)N(C)[C@@H](CC(C)C)C(=O)N[C@@H]([C@@H](C)O)C1=O [Compound G04] ([NMeAbu]L[NMeL][NMeF]S(Pro(4,4-F2)ψ(CH2))[NMeAbu][NMeL]T[NBuGly][NMeL]D-Piperidide; lactam N-11)
1.8
CCCCN1CC(=O)N(C)[C@@H](Cc2ccccc2)C(=O)N(C)[C@@H](CC(C)C)C(=O)N[C@@H](C(C)C)C(=O)N(C)[C@@H](CC(C)C)C(=O)N[C@H](C(=O)N2CCCCC2)CC(=O)N(C)CC(=O)N(C)[C@@H](CC(C)C)C(=O)N[C@@H](COC[C@@H]2CC(F)(F)CN2)C(=O)N(C)[C@@H](CC(C)C)C(=O)N[C@@H]([C@@H](C)O)C1=O [Compound G06] ([Sar][NMeL]S(Pro(4,4-F2)ψ(CH2))[NMeL]T[NBuGly][NMeF][NMeL]V[NMeL]D-Piperidide; lactam N-11)
1.8

(Q) Let me know recorded Papp for CC(C)C[C@@H]1NC(=O)[C@H](C)N(C)C(=O)C[C@@H](C(=O)N2CCCCC2)NC(=O)[C@H](CC(C)C)N(C)C(=O)CN(C)C(=O)[C@H](CCC[C@@H]2CC(F)(F)CN2)NC(=O)[C@H](CC(C)C)N(C)C(=O)[C@H](CC(C)C)N(C)C(=O)[C@H](CC(C)C)NC(=O)[C@H](Cc2ccccc2)N(C)C(=O)[C@H](C)N(C)C1=O [Compound H10] ([NMeA]L[NMeA][NMeF]L[NMeL][NMeL][X5][Sar][NMeL]D-Piperidide; lactam N-11) , thanks.
(A) 0.43

(Q) Let me know recorded Papp for CCCCN1CC(=O)N(C)[C@@H](CC(C)C)C(=O)N[C@@H](COC(C)(C)C)C(=O)N(C)[C@@H](Cc2ccccc2)C(=O)N(C)[C@@H](CC)C(=O)N[C@H](C(=O)N2CCCCC2)CC(=O)N[C@H](C)C(=O)N(C)[C@@H](CC)C(=O)N[C@@H](C(C)C)C(=O)N(C)[C@@H](CC(C)C)C(=O)N[C@@H](COC[C@@H]2CC(F)(F)CN2)C1=O [Compound G08] ([dA][NMeAbu]V[NMeL]S(Pro(4,4-F2)ψ(CH2))[NBuGly][NMeL]S(tBu)[NMeF][NMeAbu]D-Piperidide; lactam N-11) , thanks.
(A) 1.3

(Q) Let me know recorded Papp for CCCCN1CC(=O)N(C)[C@@H](Cc2ccccc2)C(=O)N(C)[C@@H](CC(C)C)C(=O)N[C@@H](CC(C)C)C(=O)N(C)[C@@H](CC(C)C)C(=O)N[C@H](C(=O)N2CCCCC2)CC(=O)N(C)CC(=O)N(C)[C@@H](CC)C(=O)N[C@@H](C(C)C)C(=O)N(C)[C@@H](CC)C(=O)N[C@@H](COC[C@@H]2CC(F)(F)CN2)C1=O [Compound G11] ([Sar][NMeAbu]V[NMeAbu]S(Pro(4,4-F2)ψ(CH2))[NBuGly][NMeF][NMeL]L[NMeL]D-Piperidide; lactam N-11) , thanks.
(A) 1.5
